experiment_summary: Cytotoxicity against mouse BALB/3T3 cells assessed as cell growth inhibition measured after 24 hrs by MTT assay
Format: cell-based
cond: BALB/3T3 cells
result_type: GI50 at 24 h (µM)

> print(dat)
                              record.smiles   result.type  quantity.unit  observed
1  COC(=O)c1[nH]c2ccc(F)cc2c1/C=C1\SC(=S)NC1=O  GI50 at 24 h             µM      54.3

###

experiment_summary: Cytotoxicity against mouse BALB/3T3 cells assessed as cell growth inhibition measured after 72 hrs by LDH assay
Format: cell-based
cond: BALB/3T3 cells
result_type: GI50 at 72 h (µM)

> print(dat)
                              record.smiles  observed
1  COC(=O)c1[nH]c2ccc(F)cc2c1/C=C1\SC(=S)NC1=O      62.8

Entry source: ChEMBL document CHEMBL5055656
